test system: TNF-α; assay: Rat assay: LPS-challenged rats, serum TNF-α by ELISA; type: in vivo; conditions: Rattus norvegicus, po, Table 10, dose 20.0 mg/kg
endpoint name: inhibition in vivo at 20 mg/kg

• Clc1ccc(-c2n[nH]c(SC3CCNCC3)c2-c2ccncc2)cc1 = 80%
• CN1CCN(c2[nH]nc(-c3cccc(Br)c3)c2-c2ccncc2)CC1 = 89%
• CN1CCC(Oc2[nH]nc(-c3ccc(Cl)cc3)c2-c2ccncc2)CC1 = 97%

Now look at this entry.
Tested on TNF-α: Cc1cc(-c2[nH]nc(N3CCN(C)CC3)c2-c2ccncc2)ccc1Br . Observed inhibition in vivo at 20 mg/kg: 91%
